- tested.target: recombinant Human Phosphodiesterase B2 (PDE4B2) (Homo sapiens)
- Sequence (Q07343 1-564 isoform Q07343-2): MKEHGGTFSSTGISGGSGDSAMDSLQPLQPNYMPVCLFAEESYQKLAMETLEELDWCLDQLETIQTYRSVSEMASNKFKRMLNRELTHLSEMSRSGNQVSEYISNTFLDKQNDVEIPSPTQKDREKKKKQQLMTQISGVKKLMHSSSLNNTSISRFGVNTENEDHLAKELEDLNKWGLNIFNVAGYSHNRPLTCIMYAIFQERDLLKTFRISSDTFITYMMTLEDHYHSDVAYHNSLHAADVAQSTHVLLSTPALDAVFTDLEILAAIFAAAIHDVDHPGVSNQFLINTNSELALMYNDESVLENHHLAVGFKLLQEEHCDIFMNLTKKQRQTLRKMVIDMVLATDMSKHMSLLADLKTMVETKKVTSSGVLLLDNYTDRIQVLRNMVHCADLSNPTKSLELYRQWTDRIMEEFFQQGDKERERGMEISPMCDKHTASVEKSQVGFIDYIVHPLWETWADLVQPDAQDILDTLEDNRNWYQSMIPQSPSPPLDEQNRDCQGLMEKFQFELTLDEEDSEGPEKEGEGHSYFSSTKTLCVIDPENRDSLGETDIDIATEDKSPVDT
- test.details: Human Phosphodiesterase B2 Radiometric Assay (yttrium silicate SPA beads, [3H]cyclic AMP)
- Type: biochemical
- measurement.context: recombinant human PDE4B2, radiometric SPA assay, 8 nM [3H]cyclic AMP; read-out: PDE4B2 pIC50 (converted)
Overview of recorded IC50 for various compounds
# value in nM; strip the unit string

> print(dat)
                                  structure  reported.value
1  O=Cc1ccc(-c2cccc(-n3c(=O)n([C@H]4CC[C@@H](NC(=O)c5cn6cc(F)ccc6n5)CC4)c(=O)c4cc(F)cnc43)c2)cc1         0.00794
2  CN(C)C1(C(=O)N[C@H]2CC[C@@H](n3c(=O)c4cc(F)cnc4n(-c4cccc(-c5ccc(CN6CCCCC6)cc5)c4)c3=O)CC2)CC1           0.158
3  Cc1ccc(CN[C@H]2CC[C@@H](n3c(=O)c4cc(F)cnc4n(-c4cccc(-c5ccc(O)cc5CN5CCOCC5)c4)c3=O)CC2)cc1           0.794
4  CNCCNCc1ccc(-c2cc(C)cc(-n3c(=O)n([C@H]4CC[C@@H](NC(=O)c5cn6cc(F)ccc6n5)CC4)c(=O)c4cc(F)cnc43)c2)cc1           0.126
5  Cc1nc(C(=O)N[C@H]2CC[C@@H](n3c(=O)c4cc(F)cnc4n(-c4cccc(-c5ccc(CN6C[C@@H](C)N[C@@H](C)C6)cc5)c4)c3=O)CC2)cs1          0.0398
6  O=C(N[C@H]1CC[C@@H](n2c(=O)c3cc(F)cnc3n(-c3cccc(-c4ccc(CN5CC[C@@H](O)C5)cc4)c3)c2=O)CC1)c1cn2cc(F)ccc2n1          0.0251

input: Suppose we examine the compound O=C(CN1CCCCC1)N[C@H]1CC[C@@H](n2c(=O)c3cc(F)cnc3n(-c3cccc(-c4ccc(O)cc4CN4CCOCC4)c3)c2=O)CC1 ; what IC50 value has been reported?
output: 2

input: What about this compound? O=c1c2cc(F)cnc2n(-c2cccc(-c3ccc(O)cc3CN3CCOCC3)c2)c(=O)n1[C@H]1CC[C@@H](NCc2ccc(Cl)cc2)CC1
output: 1

input: What about this compound? CC(C)N(CCO)Cc1ccc(-c2cccc(-n3c(=O)n([C@H]4CC[C@@H](NC(=O)C5(N(C)C)CC5)CC4)c(=O)c4cc(F)cnc43)c2)cc1
output: 0.0631

input: What about this compound? C[C@@H]1CN(Cc2ccc(-c3cccc(-n4c(=O)n([C@H]5CC[C@@H](NC(=O)c6nc7ccccc7[nH]6)CC5)c(=O)c5cc(F)cnc54)c3)cc2)C[C@H](C)N1
output: 0.0501

input: What about this compound? Cc1cccc(C(=O)N[C@H]2CC[C@@H](n3c(=O)c4cc(F)cnc4n(-c4cccc(-c5ccc(CN6CCC(N7CCCCC7)CC6)cc5)c4)c3=O)CC2)n1
output: 0.0158
